Test: Solubility of the compound
Format: physicochemical
Form field: solubility (one value per entry).

molecule	solubility
Cc1[nH]c(C(=O)N[C@@H]2CCN(c3ncc(C(=O)O)s3)CC23OCCCO3)c(Cl)c1Cl	> 1000 µM
CO[C@H]1CN(c2nc(-c3ncc[nH]3)c(C(=O)O)s2)CC[C@H]1NC(=O)c1[nH]c(C)c(Cl)c1Cl	< 1 µM
Cc1[nH]c(C(=O)N[C@@H]2CCN(c3ncc(C(=O)O)s3)C[C@@H]2S(C)(=O)=O)c(Cl)c1Cl (racemic)	> 1000 µM

---

Assay: Solubility of the compound
Assay type: physicochemical
Form field: solubility (one value per entry).

molecule	solubility
CO[C@H]1CN(c2nc3cccc(C(=O)O)c3s2)CC[C@H]1NC(=O)c1[nH]c(C)c(Cl)c1Cl	< 1 µM
Cc1[nH]c(C(=O)N[C@@H]2CCN(c3ncc(C(=O)O)s3)CC23OCCO3)c(Cl)c1Cl	> 1000 µM
CS[C@H]1CN(c2ncc(C(=O)O)s2)CC[C@H]1NC(=O)c1[nH]c(C)c(Cl)c1Cl (racemic)	> 1000 µM
COC1(OC)CN(c2ncc(C(=O)O)s2)CC[C@H]1NC(=O)c1[nH]c(C)c(Cl)c1Cl	> 1000 µM

---

Test system: Staphylococcus aureus
Test: Antimicrobial activity against methicillin-sensitive Staphylococcus aureus by broth microdilution/CLSI method
Format: functional
Settings: Staphylococcus aureus; read-out: MIC
observed_property: MIC (µg/mL)

molecule	observed_property	relational_operator	measured_result
CO[C@H]1CN(c2ncc(C(=O)O)s2)CC[C@@H]1NC(=O)c1[nH]c(C)c(Cl)c1Cl	MIC	>	64
CO[C@H]1CN(c2nc3cccc(C(=O)O)c3s2)CC[C@H]1NC(=O)c1[nH]c(C)c(Cl)c1Cl	MIC	=	0.031
Cc1[nH]c(C(=O)N[C@@H]2CCN(c3ncc(C(=O)O)s3)C[C@@H]2N=[N+]=[N-])c(Cl)c1Cl (racemic)	MIC	=	0.13
CO[C@H]1CN(c2nc(C(=O)N(C)C)c(C(=O)O)s2)CC[C@H]1NC(=O)c1[nH]c(C)c(Cl)c1Cl (racemic)	MIC	=	8
CO[C@H]1CN(c2nc(C(=O)NCC3OCCO3)c(C(=O)O)s2)CC[C@H]1NC(=O)c1[nH]c(C)c(Cl)c1Cl	MIC	=	0.063
Cc1[nH]c(C(=O)NC2CCN(c3ncc(C(=O)O)s3)CC2)c(Cl)c1Cl	MIC	=	11
CO[C@H]1CN(c2nc(-c3cncc(NCCN4CCN(C)CC4)n3)c(C(=O)O)s2)CC[C@H]1NC(=O)c1[nH]c(C)c(Cl)c1Cl	MIC	=	0.25
CO[C@H]1CN(c2nc(-c3nc(C)no3)c(C(=O)O)s2)CC[C@H]1NC(=O)c1[nH]c(C)c(Cl)c1Cl	MIC	=	0.13
Cc1[nH]c(C(=O)N[C@@H]2CCN(c3ncc(C(=O)O)s3)C[C@@H]2S(C)(=O)=O)c(Cl)c1Cl (racemic)	MIC	>	8
CO[C@H]1CN(c2nc(C(=O)NCC3(C)OCCO3)c(C(=O)O)s2)CC[C@H]1NC(=O)c1[nH]c(C)c(Cl)c1Cl	MIC	=	0.063
COc1ccnc(-c2nc(N3CC[C@@H](NC(=O)c4[nH]c(C)c(Cl)c4Cl)[C@@H](OC)C3)sc2C(=O)O)n1	MIC	<	0.06
CS[C@H]1CN(c2ncc(C(=O)O)s2)CC[C@H]1NC(=O)c1[nH]c(C)c(Cl)c1Cl (racemic)	MIC	=	0.13
CO[C@H]1CN(c2nc(-c3nccs3)c(C(=O)O)s2)CC[C@H]1NC(=O)c1[nH]c(C)c(Cl)c1Cl	MIC	<	0.06

---

Form field: MIC (one value per entry).
Test system: Escherichia coli
Assay: Antimicrobial activity against wild-type Escherichia coli Eco523 by broth microdilution/CLSI method
Type: functional
Details: Escherichia coli, Eco523; read-out: MIC

molecule	MIC
COCCNC(=O)c1nc(N2CC[C@@H](NC(=O)c3[nH]c(C)c(Cl)c3Cl)[C@@H](OC)C2)sc1C(=O)O	24 µg/mL
C=CCO[C@H]1CN(c2ncc(C(=O)O)s2)CC[C@H]1NC(=O)c1[nH]c(C)c(Cl)c1Cl (racemic)	> 8 µg/mL
CO[C@H]1CO[C@@]2(CN(c3ncc(C(=O)O)s3)CC[C@H]2NC(=O)c2[nH]c(C)c(Cl)c2Cl)OC1 (relative stereo)	> 64 µg/mL
COC[C@H]1CN(c2ncc(C(=O)O)s2)CC[C@H]1NC(=O)c1[nH]c(C)c(Cl)c1Cl (racemic)	> 8 µg/mL
CO[C@H]1CN(c2nc(-c3nccs3)c(C(=O)O)s2)CC[C@H]1NC(=O)c1[nH]c(C)c(Cl)c1Cl	8 µg/mL
CNC(=O)c1nc(N2CC[C@@H](NC(=O)c3[nH]c(C)c(Cl)c3Cl)[C@@H](OC)C2)sc1C(=O)O	18 µg/mL
COCc1nc(N2CC[C@@H](NC(=O)c3[nH]c(C)c(Cl)c3Cl)[C@@H](OC)C2)sc1C(=O)O	> 8 µg/mL
CO[C@H]1CN(c2nc(CN3CCOCC3)c(C(=O)O)s2)CC[C@H]1NC(=O)c1[nH]c(C)c(Cl)c1Cl (racemic)	0.13 µg/mL
COc1ccnc(-c2nc(N3CC[C@@H](NC(=O)c4[nH]c(C)c(Cl)c4Cl)[C@@H](OC)C3)sc2C(=O)O)n1	16 µg/mL
Cc1[nH]c(C(=O)N[C@@H]2CCN(c3ncc(C(=O)O)s3)CC23OCCO3)c(Cl)c1Cl	> 64 µg/mL

---

Form field: MIC (one value per entry).
System: Staphylococcus aureus
Experiment: Antimicrobial activity against methicillin, quinolone-resistant Staphylococcus aureus by broth microdilution/CLSI method
Format: functional
Conditions: Staphylococcus aureus; read-out: MIC
observed_property: MIC (µg/mL)

compound	observed_property	relational_operator	measured_result
CO[C@H]1CN(c2ncc(C(=O)O)s2)CC[C@@H]1NC(=O)c1[nH]c(C)c(Cl)c1Cl	MIC	>	64
Cc1[nH]c(C(=O)NC2CCN(c3ncc(C(=O)O)s3)CC2)c(Cl)c1Cl	MIC	=	13
CO[C@H]1CN(c2nc(-c3cnccn3)c(C(=O)O)s2)CC[C@H]1NC(=O)c1[nH]c(C)c(Cl)c1Cl	MIC	=	0.018
COC[C@H](C)NC(=O)c1nc(N2CC[C@@H](NC(=O)c3[nH]c(C)c(Cl)c3Cl)[C@@H](OC)C2)sc1C(=O)O	MIC	=	0.057
CO[C@@H]1CN(c2ncc(C(=O)O)s2)CC[C@@H]1NC(=O)c1[nH]c(C)c(Cl)c1Cl	MIC	=	32
C=CCO[C@H]1CN(c2ncc(C(=O)O)s2)CC[C@H]1NC(=O)c1[nH]c(C)c(Cl)c1Cl (racemic)	MIC	=	1
CO[C@H]1CN(c2nc(C(F)F)c(C(=O)O)s2)CC[C@H]1NC(=O)c1[nH]c(C)c(Cl)c1Cl	MIC	=	2
C#CCO[C@H]1CN(c2ncc(C(=O)O)s2)CC[C@H]1NC(=O)c1[nH]c(C)c(Cl)c1Cl	MIC	=	0.25
CO[C@H]1CN(c2nc(C(=O)NCCN3CCCC3=O)c(C(=O)O)s2)CC[C@H]1NC(=O)c1[nH]c(C)c(Cl)c1Cl	MIC	=	1.4
CO[C@H]1CN(c2nc(C(C)=O)c(C(=O)O)s2)CC[C@H]1NC(=O)c1[nH]c(C)c(Cl)c1Cl	MIC	=	0.063
COCc1nc(N2CC[C@@H](NC(=O)c3[nH]c(C)c(Cl)c3Cl)[C@@H](OC)C2)sc1C(=O)O	MIC	=	1
CO[C@H]1CN(c2nc(CN3CCOCC3)c(C(=O)O)s2)CC[C@H]1NC(=O)c1[nH]c(C)c(Cl)c1Cl (racemic)	MIC	=	2
Cc1[nH]c(C(=O)N[C@@H]2CCN(c3ncc(C(=O)O)s3)CC23OCC(C)(C)CO3)c(Cl)c1Cl	MIC	=	0.5
Cc1[nH]c(C(=O)N[C@@H]2CCN(c3ncc(C(=O)O)s3)C[C@@H]2O)c(Cl)c1Cl (racemic)	MIC	=	16
CO[C@H]1CN(c2nc3cccc(C(=O)O)c3s2)CC[C@H]1NC(=O)c1[nH]c(C)c(Cl)c1Cl	MIC	=	0.031
CO[C@H]1CN(c2nc(-c3cncc(OCCN(C)C)n3)c(C(=O)O)s2)CC[C@H]1NC(=O)c1[nH]c(C)c(Cl)c1Cl	MIC	=	0.19
CO[C@H]1CN(c2nc(C(=O)NN3CCOCC3)c(C(=O)O)s2)CC[C@H]1NC(=O)c1[nH]c(C)c(Cl)c1Cl	MIC	=	4
CS[C@H]1CN(c2ncc(C(=O)O)s2)CC[C@H]1NC(=O)c1[nH]c(C)c(Cl)c1Cl (racemic)	MIC	=	0.25

---

Assay: Percentage unbound in human plasma
Format: ADME, cell-free
Form field: fraction unbound (one value per entry).

molecule	relational_operator	fraction unbound
COC1(OC)CN(c2ncc(C(=O)O)s2)CC[C@H]1NC(=O)c1[nH]c(C)c(Cl)c1Cl	=	0.018
CO[C@H]1CN(c2nc(-c3nccn3C)c(C(=O)O)s2)CC[C@H]1NC(=O)c1[nH]c(C)c(Cl)c1Cl	=	0.011
C=C1COC2(CN(c3ncc(C(=O)O)s3)CC[C@H]2NC(=O)c2[nH]c(C)c(Cl)c2Cl)OC1	=	0.006
CO[C@H]1CN(c2nc(-c3ncc[nH]3)c(C(=O)O)s2)CC[C@H]1NC(=O)c1[nH]c(C)c(Cl)c1Cl	<	0.01
COc1cc(OC)nc(-c2nc(N3CC[C@@H](NC(=O)c4[nH]c(C)c(Cl)c4Cl)[C@@H](OC)C3)sc2C(=O)O)n1	=	0.036
CO[C@H]1CN(c2nc(CN3CCOCC3)c(C(=O)O)s2)CC[C@H]1NC(=O)c1[nH]c(C)c(Cl)c1Cl (racemic)	=	0.057
CO[C@H]1CN(c2nc(-c3nc(C)no3)c(C(=O)O)s2)CC[C@H]1NC(=O)c1[nH]c(C)c(Cl)c1Cl	=	0.015
Cc1[nH]c(C(=O)N[C@@H]2CCN(c3ncc(C(=O)O)s3)C[C@@H]2C)c(Cl)c1Cl (racemic)	=	0.023
COC[C@H](C)NC(=O)c1nc(N2CC[C@@H](NC(=O)c3[nH]c(C)c(Cl)c3Cl)[C@@H](OC)C2)sc1C(=O)O	=	0.025
CO[C@H]1CO[C@@]2(CN(c3ncc(C(=O)O)s3)CC[C@H]2NC(=O)c2[nH]c(C)c(Cl)c2Cl)OC1 (relative stereo)	=	0.053
COCCNC(=O)c1nc(N2CC[C@@H](NC(=O)c3[nH]c(C)c(Cl)c3Cl)[C@@H](OC)C2)sc1C(=O)O	=	0.027
COc1ccnc(-c2nc(N3CC[C@@H](NC(=O)c4[nH]c(C)c(Cl)c4Cl)[C@@H](OC)C3)sc2C(=O)O)n1	=	0.036
CO[C@H]1CN(c2nc(-c3ccccn3)c(C(=O)O)s2)CC[C@H]1NC(=O)c1[nH]c(C)c(Cl)c1Cl	=	0.003
CNC(=O)c1nc(N2CC[C@@H](NC(=O)c3[nH]c(C)c(Cl)c3Cl)[C@@H](OC)C2)sc1C(=O)O	=	0.02
CO[C@H]1CN(c2nc(C(=O)O)cs2)CC[C@H]1NC(=O)c1[nH]c(C)c(Cl)c1Cl	=	0.022
COCc1nc(N2CC[C@@H](NC(=O)c3[nH]c(C)c(Cl)c3Cl)[C@@H](OC)C2)sc1C(=O)O	=	0.034
CO[C@H]1CN(c2nc(-c3cn(C)cn3)c(C(=O)O)s2)CC[C@H]1NC(=O)c1[nH]c(C)c(Cl)c1Cl	=	0.019
Cc1[nH]c(C(=O)N[C@@H]2CCN(c3ncc(C(=O)O)s3)C[C@@H]2N=[N+]=[N-])c(Cl)c1Cl (racemic)	=	0.038
